- Test system: Human immunodeficiency virus 1
- measurement-description: Antiviral activity against wild type HIV1 in presence of 10% FBS
- Assay type: functional, organism-based
Assign log10 EC50 to each entry below.
Values are log10 of EC50 in nM.

What does the record list as log10 EC50 for CN(C)C(=O)C(=O)NC12CCC(CC1)Cn1c2nc(C(=O)NCc2ccc(F)c(C(F)(F)F)c2)c(O)c1=O ?
0.15

Give its log10 EC50 value. Item: CN(C)C(=O)C(=O)NC12CCC(CC1)n1c2nc(C(=O)NCc2ccc(F)cc2)c(O)c1=O
0.90

// query log10 EC50 value for entry Cc1cc(CNC(=O)c2nc3n(c(=O)c2O)CC2CCC3(NC(=O)C(=O)N(C)C)CC2)ccc1F
-0.15

Form field: reported log10 EC50 of CN(C)C(=O)C(=O)NC12CCC(CC1)Cn1c2nc(C(=O)NCc2ccc(F)cc2S(C)(=O)=O)c(O)c1=O
1.04

// lookup log10 EC50 for CN(C)C(=O)NC12CCC(CC1)Cn1c2nc(C(=O)NCc2ccc(F)cc2)c(O)c1=O
1.15

// lookup log10 EC50 for CN(C)C(=O)CNC12CCC(CC1)Cn1c2nc(C(=O)NCc2ccc(F)cc2)c(O)c1=O
0.85
